assay: Surface tension measurements by pendant drop method in water (cmc and surface properties); type: physicochemical; conditions: water
We begin with a simple list: items and their reported πcmc (ability to lower the surface tension of water).
reported.endpoint: πcmc (ability to lower the surface tension of water) (mN m^−1)

In [3]: df
Out[3]:
                                   molecule  unit_string  observed_value
0  CCCCCCCC/C=C\CCCCCCCC(=O)NCCC[N+](C)(C)C/C=C\C[N+](C)(C)CCCNC(=O)CCCCCCC/C=C\CCCCCCCC.[Cl-].[Cl-] [Surfactant 4]      mN m^−1           34.77
1  CCCCCCCC/C=C\CCCCCCCC(=O)NCCC[N+](C)(C)CCCC[N+](C)(C)CCCNC(=O)CCCCCCC/C=C\CCCCCCCC.[Br-].[Br-] [Surfactant 5]      mN m^−1           39.08
2  CCCCCCCC/C=C\CCCCCCCC(=O)NCCC[N+](C)(C)C/C=C/C[N+](C)(C)CCCNC(=O)CCCCCCC/C=C\CCCCCCCC.[Br-].[Br-] [Surfactant 3]      mN m^−1           36.33

====

We begin with a simple list: items and their reported πcmc (ability to lower the surface tension of water).
experiment: Surface tension measurements by pendant drop method in water (cmc and surface properties); format: physicochemical; conditions: water
reported.endpoint: πcmc (ability to lower the surface tension of water)

>>> df
                                   compound  observed_value
0  CCCCCCCC/C=C\CCCCCCCC(=O)NCCC[N+](C)(C)CCCCCC[N+](C)(C)CCCNC(=O)CCCCCCC/C=C\CCCCCCCC.[Br-].[Br-] [Surfactant 6]   41.66 mN m^−1
1  CCCCCCCCCCCC(=O)NCCC[N+](C)(C)C/C=C\C[N+](C)(C)CCCNC(=O)CCCCCCCCCCC.[Cl-].[Cl-] [Surfactant 2]   33.88 mN m^−1
2  CCCCCCCCCCCC(=O)NCCC[N+](C)(C)C/C=C/C[N+](C)(C)CCCNC(=O)CCCCCCCCCCC.[Br-].[Br-] [Surfactant 1]   35.77 mN m^−1

====

test: Surface tension measurements by pendant drop method in water (cmc and surface properties); assay type: physicochemical; conditions: water, pendant drop; intersection of two lines in plot of surface tension versus concentration
We begin with a simple list: items and their reported cmc (critical micelle concentration).
reported.endpoint: cmc (critical micelle concentration) (mol/L)

                                   molecule  unit_string  observed_value
0  CCCCCCCCCCCC(=O)NCCC[N+](C)(C)C/C=C/C[N+](C)(C)CCCNC(=O)CCCCCCCCCCC.[Br-].[Br-] [Surfactant 1]        mol/L        0.000256
1  CCCCCCCC/C=C\CCCCCCCC(=O)NCCC[N+](C)(C)C/C=C/C[N+](C)(C)CCCNC(=O)CCCCCCC/C=C\CCCCCCCC.[Br-].[Br-] [Surfactant 3]        mol/L        0.000158
2  CCCCCCCC/C=C\CCCCCCCC(=O)NCCC[N+](C)(C)C/C=C\C[N+](C)(C)CCCNC(=O)CCCCCCC/C=C\CCCCCCCC.[Cl-].[Cl-] [Surfactant 4]        mol/L        0.000291
3  CCCCCCCC/C=C\CCCCCCCC(=O)NCCC[N+](C)(C)CCCCCC[N+](C)(C)CCCNC(=O)CCCCCCC/C=C\CCCCCCCC.[Br-].[Br-] [Surfactant 6]        mol/L         7.7e-05
4  CCCCCCCC/C=C\CCCCCCCC(=O)NCCC[N+](C)(C)CCCC[N+](C)(C)CCCNC(=O)CCCCCCC/C=C\CCCCCCCC.[Br-].[Br-] [Surfactant 5]        mol/L        0.000105
